Target: T1, human IL-1α (human, UniProt P01583 113-271)
T1 construct: also called IL-1alpha; hIL-1α
T1 sequence (looked up): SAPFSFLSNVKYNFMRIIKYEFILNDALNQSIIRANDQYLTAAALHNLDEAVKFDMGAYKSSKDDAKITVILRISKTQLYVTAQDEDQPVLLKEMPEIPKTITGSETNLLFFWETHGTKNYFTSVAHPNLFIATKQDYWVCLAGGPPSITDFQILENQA
Assay: Table 62 IC50; RBA presumed
As shown below, each of these binders has a reported IC50 value.
assay readout: IC50 (nM)

1) ABT1-151 (other, VK dAb) VL: DIQMTQSPSSLSASVGDRVTITCRASQSISSYLNWYQQKPGKAPKLLIGGRSGLQSGVPSRFSGSGSGTDFTLTISSLQPEDFATYYCGQWYRHPATFGQGTKVEIKRAAAEQKLISEED	200
2) ABT1-95-26 (other, VK dAb) VL: DIQMTQSPSSLSASVGDRVTITCRASQPIVRNLRWYQQKPGKAPKLLIYSSSYLEPGVPSRFSGSGSGTDFTLTISSLQPEDFATYYCGQGYRWPVTFGQGTKVEIKR	0.5
3) ABT1-141-7 (other, VK dAb) VL: DIQMTQSPSSLSASVGDRITITCRASQWIQKQLAWYQLKPGKAPKLLIYSSSYLQSGVPSRFSGSGSGTDFTLTISSLQPEDFATYYCQQHLRVPFTFGQGTKVEIKR	10
4) ABT1-95-27 (other, VK dAb) VL: DIQMTQSPSSLSASVGDRVTITCRASQPIVRNLRWYQQKPRKAPKLLIYSSSYLEPGVPSRFSGSGSGTDFTLTISSLQPEDFATYYCAQGYRWPVTFGQGTKVEIKR	0.5
